# TESTED TARGET: PARG in HeLa cell line (Homo sapiens (Human))
# Sequence (Q86W56 whole entry): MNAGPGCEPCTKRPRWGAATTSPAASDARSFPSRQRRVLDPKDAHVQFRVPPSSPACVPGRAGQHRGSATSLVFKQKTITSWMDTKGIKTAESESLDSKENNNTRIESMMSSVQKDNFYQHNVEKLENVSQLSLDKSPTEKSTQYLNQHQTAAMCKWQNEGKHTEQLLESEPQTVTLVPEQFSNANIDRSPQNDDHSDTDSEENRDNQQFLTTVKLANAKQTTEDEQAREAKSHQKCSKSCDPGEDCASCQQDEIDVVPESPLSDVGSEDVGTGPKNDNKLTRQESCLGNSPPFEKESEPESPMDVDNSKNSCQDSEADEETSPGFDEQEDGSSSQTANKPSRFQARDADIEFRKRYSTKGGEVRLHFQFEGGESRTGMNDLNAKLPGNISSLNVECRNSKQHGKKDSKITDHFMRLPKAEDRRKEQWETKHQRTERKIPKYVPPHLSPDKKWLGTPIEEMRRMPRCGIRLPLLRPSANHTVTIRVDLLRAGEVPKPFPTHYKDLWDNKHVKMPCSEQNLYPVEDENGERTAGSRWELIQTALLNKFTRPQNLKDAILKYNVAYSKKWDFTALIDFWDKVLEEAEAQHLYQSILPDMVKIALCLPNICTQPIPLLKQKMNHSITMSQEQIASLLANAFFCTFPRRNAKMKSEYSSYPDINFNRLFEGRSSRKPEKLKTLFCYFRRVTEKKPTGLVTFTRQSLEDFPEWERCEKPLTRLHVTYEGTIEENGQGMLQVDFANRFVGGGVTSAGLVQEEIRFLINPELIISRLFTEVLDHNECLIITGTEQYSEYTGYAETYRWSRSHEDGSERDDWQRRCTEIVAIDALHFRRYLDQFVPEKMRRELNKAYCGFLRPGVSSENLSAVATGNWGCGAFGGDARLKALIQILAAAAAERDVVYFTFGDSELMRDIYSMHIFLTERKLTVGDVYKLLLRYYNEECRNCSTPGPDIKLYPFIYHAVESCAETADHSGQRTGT
# PROCEDURE SUMMARY: PARG cell assay (nuclear PAR chains after MMS, immunofluorescence)
# Format: cell-based
# CONDITION SUMMARY: HeLa cells, MMS 50 μg/mL; read-out: PARG Cell IC50 Geomean
pIC50 values by entry
FYI, pIC50 means -log10 of a concentration in mol per litre.

# count of solved cases: 3
molecule="O=c1n(CCF)c2cc(F)c(S(=O)(=O)NC3(CF)CC3)cc2n1-c1nnc(C(F)F)o1 [Example 212]" assay_result=6.96
molecule="CC1(NS(=O)(=O)c2cc3c(cc2F)n(CCF)c(=O)n3-c2nnc(C(F)F)o2)CC1 [Example 211]" assay_result=6.87
molecule="COCCn1c(=O)n(-c2nnc(C(F)F)s2)c2cc(S(=O)(=O)NC3(CF)CC3)ccc21 [Example 163]" assay_result=6.98

Proceeding to the next molecule to report its pIC50.
Incoming: Name the recorded pIC50 of the molecule listed here: Cn1c(=O)n(-c2nnc(C(F)F)s2)c2cc(S(=O)(=O)NC3(C)CC3)c(F)cc21 [Example 173]
Outgoing: 7.19

---

# TESTED TARGET: Human Full Length PARG (Homo sapiens (Human), UniProt Q86W56)
# Sequence (Q86W56 whole entry): as above
# PROCEDURE SUMMARY: PARG in vitro enzyme assay (TR-FRET)
# CONDITION SUMMARY: read-out: PARG_EC50_ENZYME
PROPERTY LABEL: log10(EC50) (log10 of the value in µM)
Quick note: numbers are log10 of EC50, with µM as the unit.

compound=Cc1nc(C)c(Cn2c(=O)n(-c3nc(Br)ns3)c3cc(S(=O)(=O)NC4(C)CC4)ccc32)s1 assay_result=-1.16
compound=COCCCn1c(=O)n(-c2nnc(C)s2)c2cc(S(=O)(=O)NC3(C)CC3)ccc21 assay_result=-0.43
compound="CC1CC1Cn1c(=O)n(C)c2cc(S(=O)(=O)NC3(C)CC3)ccc21 (stereo not drawn)" assay_result=0.65
compound=Cc1nc(C)c(Cn2c(=O)n(-c3ccn(C)n3)c3cc(S(=O)(=O)NC4(C)CC4)ccc32)s1 assay_result=0.85
compound=Cn1c(=O)n(-c2nnc(C(F)(F)F)s2)c2cc(S(=O)(=O)NC3(C)CC3)ccc21 assay_result=-0.14

Incoming: Name the recorded log10(EC50) of the compound listed here: COCCn1c(=O)n(-c2nnc(C)s2)c2cc(S(=O)(=O)NC3(C#N)CC3)ccc21
Outgoing: -0.21

Incoming: Name the recorded log10(EC50) of the compound listed here: Cn1c(=O)n(-c2ccc(C(F)(F)F)nn2)c2cc(S(=O)(=O)NC3(CF)CC3)c(F)cc21
Outgoing: 0.60

Incoming: Name the recorded log10(EC50) of the compound listed here: CC1(NS(=O)(=O)c2ccc3c(c2)n(-c2nccs2)c(=O)n3Cc2ccc(F)cc2)CC1
Outgoing: 0.43

Incoming: Name the recorded log10(EC50) of the compound listed here: CC1(NS(=O)(=O)c2ccc3c(c2)[nH]c(=O)n3Cc2ccc(F)cc2)CC1
Outgoing: 0.92

---

# TESTED TARGET: PARG in HeLa cell line (Homo sapiens (Human))
# PROCEDURE SUMMARY: PARG cell assay (nuclear PAR chains after MMS, immunofluorescence)
# Assay type: cell-based
# CONDITION SUMMARY: HeLa cells, MMS 50 μg/mL; read-out: PARG Cell IC50 Geomean
PROPERTY LABEL: pIC50
FYI, pIC50 means -log10 of a concentration in mol per litre.

# count of solved cases: 5
chemical_string=Cn1c(=O)n(-c2ccc(C(F)(F)F)nn2)c2cc(S(=O)(=O)NC3(CF)CC3)c(F)cc21 property_label=pIC50 assay_result=6.01
chemical_string=Cc1nnc(-n2c(=O)n(CC#N)c3ccc(S(=O)(=O)NC4(CF)CC4)cc32)s1 property_label=pIC50 assay_result=6.04
chemical_string=COCCCn1c(=O)n(-c2nc(C)ns2)c2cc(S(=O)(=O)NC3(CF)CC3)ccc21 property_label=pIC50 assay_result=6.13
chemical_string=CCOC(=O)n1c(=O)n(Cc2sc(C)nc2C)c2ccc(S(=O)(=O)NC3(C)CC3)cc21 property_label=pIC50 assay_result=6.07
chemical_string=Cc1nnc(-n2c(=O)n(CCF)c3ccc(S(=O)(=O)NC4(C)CC4)cc32)o1 property_label=pIC50 assay_result=6.09

Proceeding to the next compound to report its pIC50.
Incoming: Name the recorded pIC50 of the compound listed here: Cc1nnc(-n2c(=O)n(C)c3ccc(S(=O)(=O)NC4(C)CC4)cc32)o1
Outgoing: 5.91

Entry source: patent US10508086B2
